Recorded values, source ChEMBL document CHEMBL1138551.

Test system: Streptococcus pneumoniae
ASSAY: Antibacterial activity against Streptococcus pneumoniae after 24 hrs by disk diffusion method
Assay type: functional
Entries and their measured MIC follow.

- COMPOUND: "Cc1ccccc1-c1nnc2n(-c3ccc(Cl)cc3)c(=O)c3ccccc3n12"
  SUBJECT OF TEST: "Streptococcus pneumoniae"
  MIC: "25 µg/mL"
- COMPOUND: "COc1ccc(-n2c(=O)c3ccccc3n3c(-c4ccccc4)nnc23)cc1"
  SUBJECT OF TEST: "Streptococcus pneumoniae"
  MIC: "6.25 µg/mL"
- COMPOUND: "O=C(O)c1cn(C2CC2)c2cc(N3CCNCC3)c(F)cc2c1=O [CIPROFLOXACIN]"
  SUBJECT OF TEST: "Streptococcus pneumoniae"
  MIC: "6.25 µg/mL"
- COMPOUND: "COc1ccc(-n2c(=O)c3ccccc3n3c4nc5ccccc5c-4nnc23)cc1"
  SUBJECT OF TEST: "Streptococcus pneumoniae"
  MIC: "12.5 µg/mL"
- COMPOUND: "O=C1c2ccccc2N2C(=NNC(=S)N2c2ccccc2)N1c1ccccc1"
  SUBJECT OF TEST: "Streptococcus pneumoniae"
  MIC: "25 µg/mL"
- COMPOUND: "O=c1c2ccccc2n2c3nc4ccccc4c-3nnc2n1-c1ccc(Cl)cc1"
  SUBJECT OF TEST: "Streptococcus pneumoniae"
  MIC: "1.56 µg/mL"
- COMPOUND: "O=c1c2ccccc2n2c(-c3ccccc3)nnc2n1-c1ccccc1"
  SUBJECT OF TEST: "Streptococcus pneumoniae"
  MIC: "50 µg/mL"
- COMPOUND: "O=c1c2ccccc2n2c(-c3ccccc3Cl)nnc2n1-c1ccc(Cl)cc1"
  SUBJECT OF TEST: "Streptococcus pneumoniae"
  MIC: "3.12 µg/mL"
- COMPOUND: "Cc1ccc(-n2c(=O)c3ccccc3n3c4nc5ccccc5c-4nnc23)cc1"
  SUBJECT OF TEST: "Streptococcus pneumoniae"
  MIC: "25 µg/mL"
- COMPOUND: "Cc1ccc(-n2c(=O)c3ccccc3n3c(-c4ccccc4Cl)nnc23)cc1"
  SUBJECT OF TEST: "Streptococcus pneumoniae"
  MIC: "12.5 µg/mL"
- COMPOUND: "Cc1ccc(-n2c(=O)c3ccccc3n3c(-c4ccccc4)nnc23)cc1"
  SUBJECT OF TEST: "Streptococcus pneumoniae"
  MIC: "50 µg/mL"
- COMPOUND: "O=c1c2ccccc2n2c(-c3ccccc3)nnc2n1-c1ccc(Cl)cc1"
  SUBJECT OF TEST: "Streptococcus pneumoniae"
  MIC: "12.5 µg/mL"
- COMPOUND: "COc1ccc(-n2c(=O)c3ccccc3n3c(-c4ccccc4C)nnc23)cc1"
  SUBJECT OF TEST: "Streptococcus pneumoniae"
  MIC: "25 µg/mL"
- COMPOUND: "O=c1c2ccccc2n2c(-c3ccccc3Cl)nnc2n1-c1ccccc1"
  SUBJECT OF TEST: "Streptococcus pneumoniae"
  MIC: "25 µg/mL"
- COMPOUND: "O=c1c2ccccc2n2c3nc4ccccc4c-3nnc2n1-c1ccccc1"
  SUBJECT OF TEST: "Streptococcus pneumoniae"
  MIC: "> 50 µg/mL"
- COMPOUND: "Cc1ccc(N2C(=S)NN=C3N(c4ccccc4)C(=O)c4ccccc4N32)cc1"
  SUBJECT OF TEST: "Streptococcus pneumoniae"
  MIC: "25 µg/mL"
- COMPOUND: "Cc1ccc(-n2c(=O)c3ccccc3n3c(-c4ccccc4C)nnc23)cc1"
  SUBJECT OF TEST: "Streptococcus pneumoniae"
  MIC: "25 µg/mL"
- COMPOUND: "Cc1ccc(N2C(=O)c3ccccc3N3C2=NNC(=S)N3c2ccccc2)cc1"
  SUBJECT OF TEST: "Streptococcus pneumoniae"
  MIC: "> 50 µg/mL"
- COMPOUND: "COc1ccc(-n2c(=O)c3ccccc3n3c(-c4ccccc4Cl)nnc23)cc1"
  SUBJECT OF TEST: "Streptococcus pneumoniae"
  MIC: "6.25 µg/mL"
- COMPOUND: "COc1ccc(N2C(=S)NN=C3N(c4ccccc4)C(=O)c4ccccc4N32)cc1"
  SUBJECT OF TEST: "Streptococcus pneumoniae"
  MIC: "25 µg/mL"
- COMPOUND: "Cc1ccc(N2C(=O)c3ccccc3N3C2=NNC(=S)N3c2ccc(C)cc2)cc1"
  SUBJECT OF TEST: "Streptococcus pneumoniae"
  MIC: "50 µg/mL"
- COMPOUND: "Cc1ccccc1-c1nnc2n(-c3ccccc3)c(=O)c3ccccc3n12"
  SUBJECT OF TEST: "Streptococcus pneumoniae"
  MIC: "> 50 µg/mL"
